Test system: MDA-MB-468 spheroids with HUVEC/MSC, viability
ASSAY DETAILS: Anticancer human tumor MDA-MB-468 cell line growth inhibition [PI3K];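 further: spheroids exposed to agents for seven days before readout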;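 on viability, T/C: 100% = DMSO vehicle control viability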
COND: second compound 0.1 µM; first compound 0.0316 µM; stronger effect = lower value
Listed next: entries and their corresponding viability, T/C.
Kindly answer with a numeric value in %, unit omitted.

Recorded viability, T/C for CC(Cn1ccc(-c2ccc(C#N)c(Cl)c2)n1)NC(=O)c1cc(C(C)O)[nH]n1 (stereo not given) + CC(Nc1ccc2c(c1)OCCn1cc(N3C(=O)OCC3C(F)F)nc1-2)C(N)=O with MDA-MB-468 spheroids with HUVEC/MSC, viability, please?
114

----------
Recorded viability, T/C by entry
Test system: MDA-MB-468 spheroids with HUVEC/MSC, viability
ASSAY DETAILS: Anticancer human tumor MDA-MB-468 cell line growth inhibition [PI3K];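 further: spheroids exposed to agents for seven days before readout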;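 on viability, T/C: 100% = DMSO vehicle control viability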
COND: second compound 0.316 µM; first compound 0.949 µM; stronger effect = lower value

// worked examples, viability, T/C included
- COMPOUND: "Cn1cnc2c(F)c(Nc3ccc(Br)cc3Cl)c(C(=O)NOCCO)cc21 + CC(Nc1ncnc2nc[nH]c12)c1cc2cccc(Cl)c2c(=O)n1-c1ccccc1"
  viability, T/C: "90.3%"
- COMPOUND: "Cn1cnc2c(F)c(Nc3ccc(Br)cc3Cl)c(C(=O)NOCCO)cc21 + CC(Nc1ccc2c(c1)OCCn1cc(N3C(=O)OCC3C(F)F)nc1-2)C(N)=O"
  viability, T/C: "64.1%"
- COMPOUND: "Cn1cnc2c(F)c(Nc3ccc(Br)cc3Cl)c(C(=O)NOCCO)cc21 + COc1c(OCCCN2CCOCC2)ccc2c3n(c(=NC(=O)c4cnc(N)nc4)nc12)CCN3"
  viability, T/C: "11.8%"

In the following, a different compound is considered.
Using the record for Cn1cnc2c(F)c(Nc3ccc(Br)cc3Cl)c(C(=O)NOCCO)cc21 + Cc1nc(NC(=O)N2CCCC2C(N)=O)sc1-c1ccnc(C(C)(C)C(F)(F)F)c1 , report its viability, T/C.
46.9%

----------
Tested on: MDA-MB-468 spheroids with HUVEC/MSC, viability
ASSAY DETAILS: Anticancer human tumor MDA-MB-468 cell line growth inhibition [PI3K];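 further: spheroids exposed to agents for seven days before readout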;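 on viability, T/C: 100% = DMSO vehicle control viability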
COND: second compound 0.01 µM; first compound 0.0316 µM; stronger effect = lower value
Lab note: anything with viability, T/C below 80% is marked 1.0; values at 80% or higher are marked 0.0.

Below are worked cases with known answers.
- COMPOUND: "Cn1ncnc1[C@H]1c2n[nH]c(=O)c3cc(F)cc(c23)N[C@@H]1c1ccc(F)cc1 + CC(Nc1ccc2c(c1)OCCn1cc(N3C(=O)OCC3C(F)F)nc1-2)C(N)=O"
  CATEGORY: 1.0
- COMPOUND: "CCCS(=O)(=O)Nc1ccc(F)c(C(=O)c2c[nH]c3ncc(-c4ccc(Cl)cc4)cc23)c1F + CC(Nc1ccc2c(c1)OCCn1cc(N3C(=O)OCC3C(F)F)nc1-2)C(N)=O"
  CATEGORY: 0.0
- COMPOUND: "CC1(C)CCC(Nc2ncc(C(F)(F)F)c(-c3c[nH]c4c(P(C)(C)=O)c(C#N)ccc34)n2)CN1 (stereo unspecified) + CC(Nc1ccc2c(c1)OCCn1cc(N3C(=O)OCC3C(F)F)nc1-2)C(N)=O"
  CATEGORY: 1.0
- COMPOUND: "CCCS(=O)(=O)Nc1ccc(F)c(C(=O)c2c[nH]c3ncc(-c4ccc(Cl)cc4)cc23)c1F + COc1c(OCCCN2CCOCC2)ccc2c3n(c(=NC(=O)c4cnc(N)nc4)nc12)CCN3"
  CATEGORY: 0.0

is_below(viability, T/C, 80%) for CC(=O)c1c(C)c2cnc(Nc3ccc(N4CCNCC4)cn3)nc2n(C2CCCC2)c1=O + COc1c(OCCCN2CCOCC2)ccc2c3n(c(=NC(=O)c4cnc(N)nc4)nc12)CCN3 ?
0.0

Regarding Cn1ncc(Cl)c1-c1cc(C(=O)NC(CN)Cc2cccc(F)c2)sc1Cl (stereo unspecified) + COc1c(OCCCN2CCOCC2)ccc2c3n(c(=NC(=O)c4cnc(N)nc4)nc12)CCN3 , kindly confirm whether its viability, T/C is beneath 80%.
1.0

# check: viability, T/C < 80% for Cn1nccc1Nc1nccc(-c2ccn(C(CO)c3ccc(Cl)c(F)c3)c(=O)c2)n1 (stereo unspecified) + COc1c(OCCCN2CCOCC2)ccc2c3n(c(=NC(=O)c4cnc(N)nc4)nc12)CCN3
1.0

Please indicate whether the reported viability, T/C of Cn1ncnc1[C@H]1c2n[nH]c(=O)c3cc(F)cc(c23)N[C@@H]1c1ccc(F)cc1 + COc1c(OCCCN2CCOCC2)ccc2c3n(c(=NC(=O)c4cnc(N)nc4)nc12)CCN3 is strictly below 80%.
1.0

In plain terms, does CC(=O)c1c(C)c2cnc(Nc3ccc(N4CCNCC4)cn3)nc2n(C2CCCC2)c1=O + CC(Nc1ccc2c(c1)OCCn1cc(N3C(=O)OCC3C(F)F)nc1-2)C(N)=O come in under 80% for viability, T/C?
0.0

----------
Tested on: MDA-MB-468 spheroids with HUVEC/MSC, viability
ASSAY DETAILS: Anticancer human tumor MDA-MB-468 cell line growth inhibition [PI3K];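 further: spheroids exposed to agents for seven days before readout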;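 on viability, T/C: 100% = DMSO vehicle control viability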
COND: second compound 3.16 µM; first compound 0.316 µM; stronger effect = lower value
PARAMETER MEASURED: viability, T/C (%)
The reply should be a number in %, with the unit left off.

- MOLECULE: "Cn1ncc(Cl)c1-c1cc(C(=O)NC(CN)Cc2cccc(F)c2)sc1Cl (stereo not given) + Cc1nc(NC(=O)N2CCCC2C(N)=O)sc1-c1ccnc(C(C)(C)C(F)(F)F)c1"
  SYSTEM TESTED: "MDA-MB-468 spheroids with HUVEC/MSC, viability"
  viability, T/C / %: 37.4
- MOLECULE: "CC(Cn1ccc(-c2ccc(C#N)c(Cl)c2)n1)NC(=O)c1cc(C(C)O)[nH]n1 (stereo not given) + Cc1nc(NC(=O)N2CCCC2C(N)=O)sc1-c1ccnc(C(C)(C)C(F)(F)F)c1"
  SYSTEM TESTED: "MDA-MB-468 spheroids with HUVEC/MSC, viability"
  viability, T/C / %: 64.4
- MOLECULE: "C=CC(=O)N1CCN(c2nc(=O)n(-c3c(C)ccnc3C(C)C)c3nc(-c4c(O)cccc4F)c(F)cc23)C(C)C1 (stereo not given) + Cc1nc(NC(=O)N2CCCC2C(N)=O)sc1-c1ccnc(C(C)(C)C(F)(F)F)c1"
  SYSTEM TESTED: "MDA-MB-468 spheroids with HUVEC/MSC, viability"
  viability, T/C / %: 55.8
- MOLECULE: "C=CC(=O)N1CCN(c2nc(=O)n(-c3c(C)ccnc3C(C)C)c3nc(-c4c(O)cccc4F)c(F)cc23)C(C)C1 (stereo not given) + CC(Nc1ncnc2nc[nH]c12)c1cc2cccc(Cl)c2c(=O)n1-c1ccccc1"
  SYSTEM TESTED: "MDA-MB-468 spheroids with HUVEC/MSC, viability"
  viability, T/C / %: 61.4

Would you kindly look at the next entry?
Please state recorded viability, T/C (tested on MDA-MB-468 spheroids with HUVEC/MSC, viability) of C[C@@H](NC(=O)c1ncnc(N)c1Cl)c1ncc(C(=O)Nc2cc(C(F)(F)F)c(Cl)cn2)s1 + Cc1nc(NC(=O)N2CCCC2C(N)=O)sc1-c1ccnc(C(C)(C)C(F)(F)F)c1
74.8

----------
Test system: MDA-MB-468 spheroids with HUVEC/MSC, viability
ASSAY DETAILS: Anticancer human tumor MDA-MB-468 cell line growth inhibition [PI3K];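 further: spheroids exposed to agents for seven days before readout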
COND: curve of first compound; second compound 0.0316 µM
Mark Y only for IC50 values smaller than 5 µM; exact matches and larger values are N.

// below: answered molecules
- MOLECULE: "Cn1nccc1Nc1nccc(-c2ccn(C(CO)c3ccc(Cl)c(F)c3)c(=O)c2)n1 (stereo unspecified) + COc1c(OCCCN2CCOCC2)ccc2c3n(c(=NC(=O)c4cnc(N)nc4)nc12)CCN3"
  CATEGORY: "N"
- MOLECULE: "Cn1ncnc1[C@H]1c2n[nH]c(=O)c3cc(F)cc(c23)N[C@@H]1c1ccc(F)cc1 + COc1c(OCCCN2CCOCC2)ccc2c3n(c(=NC(=O)c4cnc(N)nc4)nc12)CCN3"
  CATEGORY: "Y"
- MOLECULE: "C[C@@H](NC(=O)c1ncnc(N)c1Cl)c1ncc(C(=O)Nc2cc(C(F)(F)F)c(Cl)cn2)s1 + CC(Nc1ccc2c(c1)OCCn1cc(N3C(=O)OCC3C(F)F)nc1-2)C(N)=O"
  CATEGORY: "N"
- MOLECULE: "CC(C)n1nc(-c2ccc3oc(N)nc3c2)c2c(N)ncnc21 + COc1c(OCCCN2CCOCC2)ccc2c3n(c(=NC(=O)c4cnc(N)nc4)nc12)CCN3"
  CATEGORY: "Y"
- MOLECULE: "C#Cc1c(F)ccc2cc(O)cc(-c3ncc4c(N5CC6CCC(C5)N6)nc(OCC56CCCN5CC(F)C6)nc4c3F)c12 (stereo unspecified) + COc1c(OCCCN2CCOCC2)ccc2c3n(c(=NC(=O)c4cnc(N)nc4)nc12)CCN3"
  CATEGORY: "N"
- MOLECULE: "C=CC(=O)N1CCN(c2nc(=O)n(-c3c(C)ccnc3C(C)C)c3nc(-c4c(O)cccc4F)c(F)cc23)C(C)C1 (stereo unspecified) + CC(Nc1ccc2c(c1)OCCn1cc(N3C(=O)OCC3C(F)F)nc1-2)C(N)=O"
  CATEGORY: "N"
- MOLECULE: "CC(Cn1ccc(-c2ccc(C#N)c(Cl)c2)n1)NC(=O)c1cc(C(C)O)[nH]n1 (stereo unspecified) + CC(Nc1ccc2c(c1)OCCn1cc(N3C(=O)OCC3C(F)F)nc1-2)C(N)=O"
  CATEGORY: "N"
- MOLECULE: "C[C@@H](NC(=O)c1ncnc(N)c1Cl)c1ncc(C(=O)Nc2cc(C(F)(F)F)c(Cl)cn2)s1 + CC(Nc1ncnc2nc[nH]c12)c1cc2cccc(Cl)c2c(=O)n1-c1ccccc1"
  CATEGORY: "N"

Now take the following molecule into account.
Hi there! Is IC50 for Cn1nccc1Nc1nccc(-c2ccn(C(CO)c3ccc(Cl)c(F)c3)c(=O)c2)n1 (stereo unspecified) + CC(Nc1ncnc2nc[nH]c12)c1cc2cccc(Cl)c2c(=O)n1-c1ccccc1 below 5 µM, do you know?
N
